Entries and their relative binding (IC50 of standard peptide / IC50 of test peptide)
tested.on: T1, HLA-DR6w19 (DRB1*1302) (human)
T1 chain 1: not shown
T1 chain 2: not shown
assay.remarks: purified HLA-DR, inhibition of 125I standard peptide, gel filtration

LELITSCSSNVSVAH (modifications not checked): 0.051

Notebook: VYCFTPSPVVVGTTD (modifications not checked) , relative binding (IC50 of standard peptide / IC50 of test peptide) read as 0.0001

Notebook: VYLLPRRGPRLGVRA (modifications not checked) , relative binding (IC50 of standard peptide / IC50 of test peptide) read as 0.0001

Notebook: FTGLTHIDAHFLSQT (modifications not checked) , relative binding (IC50 of standard peptide / IC50 of test peptide) read as 0.0002

Notebook: GNWFGCTWMNSTGFT (modifications not checked) , relative binding (IC50 of standard peptide / IC50 of test peptide) read as 0.0001
